Catalogue of pIC50 readings, one per entry.
subject_of_test: KDR (phospho-KDR, VEGF165-stimulated HUVEC cells) (Homo sapiens (Human))
Sequence (P35968 20-1356): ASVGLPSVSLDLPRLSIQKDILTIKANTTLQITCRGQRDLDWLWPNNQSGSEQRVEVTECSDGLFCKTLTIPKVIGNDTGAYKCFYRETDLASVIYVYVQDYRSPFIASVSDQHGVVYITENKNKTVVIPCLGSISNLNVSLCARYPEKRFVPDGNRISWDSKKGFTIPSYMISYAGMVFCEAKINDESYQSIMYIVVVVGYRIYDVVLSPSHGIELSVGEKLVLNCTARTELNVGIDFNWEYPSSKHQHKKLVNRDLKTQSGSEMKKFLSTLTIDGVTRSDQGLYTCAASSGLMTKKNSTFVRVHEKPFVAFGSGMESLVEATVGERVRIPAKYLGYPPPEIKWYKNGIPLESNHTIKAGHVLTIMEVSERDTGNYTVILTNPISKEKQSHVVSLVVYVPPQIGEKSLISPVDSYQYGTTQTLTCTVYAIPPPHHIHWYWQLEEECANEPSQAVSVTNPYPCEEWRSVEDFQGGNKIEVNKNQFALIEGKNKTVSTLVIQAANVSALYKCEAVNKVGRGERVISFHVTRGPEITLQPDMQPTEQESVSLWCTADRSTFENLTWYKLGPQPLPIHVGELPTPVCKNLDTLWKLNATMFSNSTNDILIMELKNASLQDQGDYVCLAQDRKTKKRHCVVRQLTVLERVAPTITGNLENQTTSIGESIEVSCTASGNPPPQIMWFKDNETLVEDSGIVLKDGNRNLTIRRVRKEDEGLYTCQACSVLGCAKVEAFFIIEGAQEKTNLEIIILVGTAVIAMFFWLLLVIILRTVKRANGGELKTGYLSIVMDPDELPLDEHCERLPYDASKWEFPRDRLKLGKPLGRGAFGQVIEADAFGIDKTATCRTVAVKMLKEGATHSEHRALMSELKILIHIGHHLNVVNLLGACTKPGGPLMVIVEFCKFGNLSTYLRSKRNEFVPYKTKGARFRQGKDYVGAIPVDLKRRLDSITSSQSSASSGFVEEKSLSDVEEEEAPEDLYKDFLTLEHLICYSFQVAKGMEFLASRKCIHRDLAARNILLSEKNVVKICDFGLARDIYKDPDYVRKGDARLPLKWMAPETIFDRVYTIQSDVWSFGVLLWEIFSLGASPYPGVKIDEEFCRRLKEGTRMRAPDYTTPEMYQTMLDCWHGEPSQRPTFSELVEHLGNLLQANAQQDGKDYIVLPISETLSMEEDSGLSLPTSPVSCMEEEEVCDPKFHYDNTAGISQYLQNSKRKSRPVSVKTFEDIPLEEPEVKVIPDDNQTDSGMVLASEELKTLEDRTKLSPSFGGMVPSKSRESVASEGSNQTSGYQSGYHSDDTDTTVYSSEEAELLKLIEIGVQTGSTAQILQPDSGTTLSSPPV
test_method_notes: KDR autophosphorylation ELISA in HUVEC cells (Example G)
Format: cell-based
conditions: cellular activity; KDR autophosphorylation ELISA in HUVEC cells
pIC50: −log10 of the molar value.
parameter: pIC50

chemical_string	value_measured
COc1cc2c(Oc3ccc(NC(=O)c4ccc(C)n(-c5ccc(F)cc5)c4=O)cc3F)ccnc2cn1	> 7.00
COc1cc2nccc(Oc3cc(C)c(NC(=O)c4cn(C)c(C)c(-c5ccc(F)cc5)c4=O)cc3F)c2nc1OC	< 6.52
COc1cnc2c(Oc3ccc(NC(=O)c4c(C)nc(C)c(-c5ccc(F)cc5C)c4O)cc3)ccnc2c1	> 7.00
C=C(C)c1cnc2c(Oc3ccc(NC(=O)c4c(C)nc(C)c(-c5ccc(F)cc5C)c4O)cc3F)ccnc2c1	> 7.00
COc1cc2nccc(Oc3ccc(NC(=O)c4c(C)nnc(-c5ccc(F)cc5C)c4OC)cc3F)c2nc1OC	> 7.00
COc1nc2c(Oc3ccc(NC(=O)c4c(C)nc(C)c(-c5ccc(F)cc5)c4O)cc3F)ccnc2cc1C	> 7.00
COCc1c(-c2ccc(F)cc2)c(=O)c(C(=O)Nc2ccc(Oc3ccnc4cc(OC)cnc34)c(F)c2)cn1C	< 6.52
COc1ccc2nccc(Oc3ccc(NC(=O)c4cn(C)c(C)c(-c5ccc(F)cc5C)c4=O)cc3F)c2n1	< 6.52
COc1cnc2c(Oc3ccc(NC(=O)c4c(C)c(C)nn(-c5ccc(F)cc5)c4=O)cc3F)ccnc2c1	< 6.52
C=Cc1c(C)c(C(=O)Nc2ccc(Oc3ccnc4cc(OCCOC)cnc34)c(F)c2)c(=O)n(-c2ccc(F)cc2)c1C	< 6.52
COc1cc2nccc(Oc3ncc(NC(=O)c4cn(-c5cnn(C)c5)cc(-c5ccc(F)cc5)c4=O)cc3F)c2cc1OC	< 6.52
COc1cc2nccc(Oc3ccc(NC(=O)c4nn(C)c(C)c(-c5ccc(F)cc5)c4=O)cc3F)c2nc1OC	> 7.00
CCOc1nc2c(Oc3ccc(NC(=O)c4c(COC)nc(C)c(-c5ccc(F)cc5)c4O)cc3)ccnc2cc1OC	> 7.00
COc1cc2nccc(Oc3ccc(NC(=O)c4cnc(C)c(-c5ccc(F)cc5)n4)cc3F)c2nc1OC	< 6.52

* * *

Catalogue of pIC50 readings, one per entry.
subject_of_test: AXL (phospho-AXL, Gas6-stimulated A-172 glioblastoma cells) (Homo sapiens (Human))
Sequence (P30530 26-894): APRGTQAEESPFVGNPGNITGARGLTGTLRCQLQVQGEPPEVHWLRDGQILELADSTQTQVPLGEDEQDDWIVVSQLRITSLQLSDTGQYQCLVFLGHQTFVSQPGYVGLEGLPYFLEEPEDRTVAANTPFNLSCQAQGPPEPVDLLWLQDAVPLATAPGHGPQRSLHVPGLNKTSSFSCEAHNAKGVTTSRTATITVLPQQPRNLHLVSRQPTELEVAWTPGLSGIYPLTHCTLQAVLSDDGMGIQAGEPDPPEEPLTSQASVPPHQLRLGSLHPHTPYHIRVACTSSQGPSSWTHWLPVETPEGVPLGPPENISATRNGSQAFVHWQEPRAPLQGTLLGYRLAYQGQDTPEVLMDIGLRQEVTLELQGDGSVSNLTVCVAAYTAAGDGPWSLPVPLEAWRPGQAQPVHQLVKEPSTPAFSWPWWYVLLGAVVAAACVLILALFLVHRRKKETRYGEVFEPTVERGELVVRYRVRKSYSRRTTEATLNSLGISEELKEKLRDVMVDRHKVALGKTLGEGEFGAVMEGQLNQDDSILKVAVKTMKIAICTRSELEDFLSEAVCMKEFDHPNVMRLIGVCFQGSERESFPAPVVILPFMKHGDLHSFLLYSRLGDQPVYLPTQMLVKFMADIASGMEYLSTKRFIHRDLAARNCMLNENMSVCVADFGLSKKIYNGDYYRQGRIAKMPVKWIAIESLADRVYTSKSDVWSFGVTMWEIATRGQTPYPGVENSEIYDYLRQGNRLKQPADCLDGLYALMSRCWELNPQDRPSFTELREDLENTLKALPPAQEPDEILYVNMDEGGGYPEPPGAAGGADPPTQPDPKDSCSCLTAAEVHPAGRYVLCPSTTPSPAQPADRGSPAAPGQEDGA
test_method_notes: AXL autophosphorylation ELISA in A-172 cells (Example E)
Type: cell-based
conditions: cellular activity; AXL autophosphorylation ELISA in A-172 cells; read-out: Axl IC50
pIC50: −log10 of the molar value.

chemical_string	pIC50
CCc1c(C)c(C(=O)Nc2ccc(Oc3ccnc4cc(OC)c(OC)nc34)c(F)c2)c(=O)n(-c2ccc(F)cc2)c1C	> 7.00
COc1cc2nccc(Oc3ccc(NC(=O)c4nnc(C)c(-c5ccc(F)cc5)c4SC)cc3F)c2nc1OC	6.52 to 7.00
COCCOc1cc2ncnc(Oc3ccc(NC(=O)c4ccc(C)n(-c5ccc(F)cc5)c4=O)cc3F)c2nc1OC	> 7.00
COc1cc2nccc(Oc3cc(F)c(NC(=O)c4c(C)nc(C)c(-c5ccc(F)cc5C)c4O)cc3F)c2nc1Cl	> 7.00
COc1cc2nccc(Oc3ccc(NC(=O)c4cn(C(C)(C)CO)cc(-c5ccc(F)cc5)c4=O)cc3F)c2cc1OC	> 7.00
C=C(C)c1cnc2c(Oc3ccc(NC(=O)c4c(C)cc(C)n(-c5ccc(F)cc5)c4=O)cc3F)ccnc2c1	> 7.00
COc1cc2nccc(Oc3ccc(NC(=O)c4cn(CC(F)F)c(C)c(-c5ccc(F)cc5C)c4=O)cc3)c2nc1OC	> 7.00
COc1cc2nccc(Oc3ccc(NC(=O)c4nnc(C)c(-c5ccc(F)cc5)c4Cl)cc3F)c2nc1OC	6.52 to 7.00
COCc1c(C(=O)Nc2ccc(Oc3ccnc4cc(OC)c(OC)nc34)c(F)c2)c(=O)c(-c2ccc(F)cc2)c(C)n1C	> 7.00
C=C(C)c1cnc2c(Oc3ccc(NC(=O)c4c(C)nc(C)n(-c5ccc(F)cc5)c4=O)cc3F)ccnc2c1	> 7.00
COc1cc2nccc(Oc3ccc(NC(=O)c4c[nH]c(=S)n(-c5ccc(F)cc5)c4=O)cc3F)c2cc1OC	> 7.00
COCCOc1cc2nccc(Oc3ccc(NC(=O)c4cc(C(C)=O)c(C)n(-c5ccc(F)cc5)c4=O)cc3)c2nc1OC	> 7.00
COc1cc2nccc(Oc3ccc(NC(=O)c4nn(C(F)F)c(C)c(-c5ccc(F)cc5)c4=O)cc3F)c2nc1OC	> 7.00
COc1cc2nccc(Oc3ccc(NC(=O)c4c(C)c(Br)c(C)n(-c5ccc(F)cc5)c4=O)cc3)c2nc1OC	> 7.00
